Known GI50 of a selection of compounds
Tested on: HS 578T breast
Test: NCI tumour cell line growth inhibition, 48 h
assay-readout: GI50

> print(dat)
                    structure.smiles.string  target.or.system      val
1                      C1CN(SSN2CCOCC2)CCO1    HS 578T breast  30.3 µM
2  CC[C@H](CO)Nc1nc(NCc2ccccc2)n2ncc(C(C)C)c2n1    HS 578T breast  1.59 µM
3  O=C(Nc1ccc(Cl)cc1)Nc1ccc(Nc2nncc3ccccc23)cc1    HS 578T breast  3.83 µM
4  CCc1ccc(NC(=O)COC(=O)c2cc([N+](=O)[O-])ccc2Sc2nnnn2C)cc1    HS 578T breast  2.65 µM
5  CCOc1ccccc1N=Nc1c(C)[nH]n(-c2nc(-c3ccccc3)cs2)c1=O    HS 578T breast  29.2 µM

----------
Known TGI of a selection of molecules
Test system: NCI-H522 lung
Assay: NCI tumour cell line growth inhibition, 48 h
assay-readout: TGI

> print(dat)
                                    molecule  assay.readout       val
 1                 CC1(C)CC(C)(C)C1=NNC(N)=O            TGI  > 100 µM
 2  N#Cc1ccccc1-c1nc2c3c(c(N)ccc3n1)C(=O)c1ccccc1-2            TGI  > 100 µM
 3  CCN(C(=S)N[C@H](C(=O)N[C@@H](C)C(=O)OC)C(C)C)c1ccccc1            TGI  > 100 µM
 4  Cc1[nH]c2ccccc2c1C1Cc2ccccc2N1C(=O)/C=C/C(=O)O (configuration not stated)            TGI  > 100 µM
 5  O=C(c1cc(Cl)ccc1Cl)N1CCN(C(=O)c2cc(Cl)ccc2Cl)CC1            TGI  > 100 µM
 6  O=C(/C=C/c1ccc([N+](=O)[O-])cc1)c1ccc2c3c(cccc13)CC2            TGI   34.5 µM
 7  C[C@H]1C[C@H]2[C@@H]3C(C)(C)O[C@]4(O)C(=O)[C@]5(O)[C@@H](C)CC[C@H]1[C@]25C(=O)[C@]34C            TGI     48 µM
 8  COC(=O)c1c(OC(C)=O)ccc2c1c1c(n2C)C(=O)c2ccccc2C1=O            TGI   67.6 µM
 9  Cc1c2c(n(CCc3ccc(Cl)cc3)c1C)NC(c1ccccc1)C(C#N)S2(=O)=O (configuration not stated)            TGI  > 100 µM
10  CN1c2ccccc2N(C)C23N(C)c4ccccc4N(C)C12N(C)c1ccccc1N3C (configuration not stated)            TGI  > 100 µM
11    O=C(NC[C@H](O)CO)c1ccncc1Nc1ccc(I)cc1F            TGI  > 100 µM
12  COC(=O)C(CSSC[C@H](N/C(C)=C/C(C)=O)C(=O)OC)N/C(C)=C/C(C)=O (some centres not stated)            TGI     30 µM
13    CCOC(=O)c1c(N2CCCC2)ncn(Cc2ccccc2)c1=S            TGI  > 100 µM
14  COc1ccc(C(SC2C(O)C(CO)OC2n2ccc(N)nc2=O)(c2ccccc2)c2ccc(OC)cc2)cc1 (configuration not stated)            TGI   31.2 µM
15  CCCCCC(C)SC1(C(=O)OC)CC(OC(C)=O)C(NC(C)=O)C([C@H](OC(C)=O)[C@@H](COC(C)=O)OC(C)=O)O1 (some centres not stated)            TGI  > 100 µM
16                      CC#CC(=O)SCCNC(=O)CC            TGI   3.14 µM
17  COc1ccc(/C=C2\S/C(=N/Nc3nc(-c4ccccc4)cs3)NC2=O)cc1OC            TGI   47.4 µM
18          CC1(c2ccc[n+](Cc3ccccc3)c2)OCCO1            TGI  > 100 µM
19  N#CC(c1nc2ccccc2nc1Cl)S(=O)(=O)c1ccccc1 (configuration not stated)            TGI  > 100 µM
20  COc1ccc(C(=O)c2cc3c(N)c(C(=O)Nc4cccc5ccccc45)sc3nc2C)cc1            TGI   > 50 µM
21  CCOC(=O)c1cc2c3c(c(C(C)=O)c(O)c2[nH]1)N(CC(C)CC)CC3 (configuration not stated)            TGI  > 100 µM
22  C/C=C(/COC(C)=O)C(=O)OC1C=C(C=O)C(C)(C)C=C1C (configuration not stated)            TGI  > 100 µM
23  COc1cc(/C=C2/C[C@H]3[C@@H]4CC=C5C[C@@H](OC(C)=O)CC[C@]5(C)[C@H]4CC[C@]3(C)NC2=O)cc(OC)c1OC            TGI   59.4 µM
24  c1ccc2c(c1)CCc1c-2n(CCN2CCOCC2)c2ccccc12            TGI   28.6 µM
25      O=c1[nH]nc(-c2ccccc2)n1/N=C/c1cccnc1            TGI  > 100 µM
26  COc1cccc(-n2ncc3c(N/N=C/c4ccncc4)ncnc32)c1            TGI   > 25 µM
27  COC(=O)CCC(NC(=S)N/N=C/c1ccco1)C(=O)OC (configuration not stated)            TGI  > 100 µM

These data points were gathered from PubChem BioAssay (NCI).
